The reported measurements were obtained from paper PMC12040169.

- assay.notes: in vitro
- experimental.conditions: human, hela cells, % viability
Listed molecules paired with reported viability at 28.5 h, 10 µM
result.type: viability at 28.5 h, 10 µM

INSERT INTO measurements (molecule, result_type, measured) VALUES
  ('CC1CCN(C(=O)CSc2ccc3nnc(-c4ccccc4)n3n2)CC1', 'viability at 28.5 h, 10 µM', '77.9%'),
  ('Cn1c(=O)oc2ccccc2c1=O', 'viability at 28.5 h, 10 µM', '100%'),
  ('CCN(Cc1ccncc1)C(=O)NCCCN1CCN(C)CC1', 'viability at 28.5 h, 10 µM', '108%'),
  ('CC1CCCCN1C(=O)CCn1c(C(F)F)cc2cccnc21 (stereo not drawn)', 'viability at 28.5 h, 10 µM', '89.5%'),
  ('NS(=O)(=O)c1ccc(NC(=O)c2ccc(NC(=O)C3COc4ccccc4O3)cc2)cc1 (stereo not drawn)', 'viability at 28.5 h, 10 µM', '101%'),
  ('O=C(CSc1nnc(SCc2cccc3ccccc23)s1)Nc1ccccc1C(F)(F)F', 'viability at 28.5 h, 10 µM', '103%'),
  ('Cc1cccn2c(=O)cc(CN3CCC(c4cnn(C)c4)CC3)nc12', 'viability at 28.5 h, 10 µM', '101%'),
  ('Cc1csc2ncc(C(=O)Nc3ccc(OC(F)(F)F)cc3)c(=O)n12', 'viability at 28.5 h, 10 µM', '108%'),
  ('CCN(CCO)c1ccc(Nc2cc(-c3cc4ccccc4o3)ncn2)cc1', 'viability at 28.5 h, 10 µM', '94.8%');

###

- assay.notes: in vitro
- experimental.conditions: human, hela cells, % viability
Listed compounds paired with reported viability at 28.5 h, 10 µM
result.type: viability at 28.5 h, 10 µM

INSERT INTO results (compound, measured) VALUES
  ('CC(=O)N1CCN([C@H]2[C@@H]3OC[C@@H](O3)[C@@H](NCC3CCCCC3)[C@@H]2O)CC1 [CBK288809]', '90.6%'),
  ('CCCn1ccnc1CNc1nc2c(s1)c(C)nn2C [CBK307254]', '84.3%'),
  ('CC(C)(C)OC(=O)NCCNCc1cc(F)cc(F)c1 [CBK056698]', '90.3%'),
  ('CC1CN(C(C)N2CC(C)OC2=O)C(=O)O1 (stereo not shown) [CBK022981]', '89.8%'),
  ('O=C(c1ccc(-c2nccnc2N2CCN(CCO)CC2)cc1)N1CCOCC1 [CBK036812]', '92.1%'),
  ('CN1CC[C@H](c2nc3ncccc3[nH]2)C1 [CBK289384]', '76.8%'),
  ('O=C(Nc1ccc(O)cc1C(=O)O)c1ccc2c(c1)C(=O)N(Cc1ccccc1)C2=O [CBK266540]', '88.7%'),
  ('CN1CCC(N2CCN(C(=O)c3ccc4c(c3)no[n+]4[O-])CC2)CC1 [CBK149095]', '92.6%'),
  ('CNc1nc(NCCCn2c(C)cccc2=O)cc(C2CCOC2)n1 (stereo not shown) [CBK306875]', '117%'),
  ('c1csc(CNc2cncc(-c3ccncc3)n2)c1 [CBK065238]', '97.3%'),
  ('Cc1ccc(-c2nc(Nc3ccc(Br)cc3)sc2CC(=O)O)cc1 [CBK264251]', '101%'),
  ('C/C(=N\Nc1cc(-c2ccccc2)nc(C)n1)c1ccc(O)cc1 [CBK261710]', '87.9%'),
  ('O=c1[nH]c(=O)c2cc(S(=O)(=O)Nc3cccc(-c4ccc(F)cc4)c3)ccc2[nH]1 [CBK286394]', '84.2%'),
  ('COc1ccc(OC(=O)N2CCC3(CC2)CC(=O)N(Cc2ccc(S(C)(=O)=O)cc2)C3=O)cc1 [CBK155952]', '99.3%'),
  ('CS(=O)(=O)Nc1ccc(CNC(=O)C2(c3ccccc3)CCCC2)cc1 [CBK161525]', '101%'),
  ('COc1ccc(OC)c(NS(=O)(=O)c2ccc(C(=O)O)cc2)c1 [CBK267603]', '106%'),
  ('O=C(NCCCN1CCOCC1)c1ccc2nccnc2c1 [CBK268704]', '114%'),
  ('CCOC(=O)C1CCCCN1Cc1ccc(OC)c(O)c1 (stereo not shown) [CBK261560]', '98.3%'),
  ('COc1cc(C=O)ccc1Oc1nnnn1-c1ccc(C(=O)O)cc1 [CBK267071]', '95.5%');

###

- assay.notes: in vitro
- experimental.conditions: human, hela cells, % viability
Mark YES for viability at 28.5 h, 10 µM under 90%, NO if at or over.

INSERT INTO assay_data (compound, assigned_category) VALUES
  ('CCOC(=O)c1c(NC(=O)CSc2ccc(F)cc2)sc2c1CCCC2', 'NO'),
  ('COc1ccc(OCc2ncc(C(C)(C)C)o2)c(C(C)=O)c1', 'NO'),
  ('Cc1cc(C(=O)Nc2cc(-c3nc4ncccc4o3)ccc2Cl)ccc1[N+](=O)[O-]', 'NO'),
  ('Cc1ccc(/C=C/C(=O)O)cc1S(=O)(=O)NCC1CCCO1 (stereo not shown)', 'YES'),
  ('CCCCc1ccc(S(=O)(=O)n2ccc3c(N4CCNCC4)cccc32)cc1 [CBK003744C]', 'YES'),
  ('O=C(CN1C(=O)S/C(=C\C=C\c2ccccc2)C1=O)Nc1cccc2c1C(=O)c1ccccc1C2=O', 'YES'),
  ('COc1cccc2c3c([nH]c12)C1(CCN(CCCC#N)CC1)N(C(C)=O)CC3', 'NO'),
  ('CC(=O)N1CCc2cc(C(O)CN3CCN(c4nsc5ccccc45)CC3)ccc21 (stereo not shown)', 'NO'),
  ('Cc1ccc(NC(=O)c2ccncc2)c(Br)c1', 'NO'),
  ('COc1ccc(S(=O)(=O)Nc2ccc(S(=O)(=O)Nc3nccs3)cc2)c([N+](=O)[O-])c1', 'NO');

###

Listed molecules paired with reported viability at 28.5 h, 10 µM
- assay.notes: in vitro
- experimental.conditions: human, hela cells, % viability
result.type: viability at 28.5 h, 10 µM (%)

INSERT INTO measurements (molecule, measured) VALUES
  ('Cn1ncc(N2CCC(CNC(=O)COc3cccc(F)c3)C2)cc1=O (centres unmarked)', 87.1),
  ('COc1ccccc1N1CCN(C(=O)NCCC(C)C)CC1', 94.5),
  ('CCCC1CCCN(Cc2nnnn2-c2ccc(S(C)(=O)=O)cc2)C1 (centres unmarked)', 89.2),
  ('COc1ccc(C(=O)/C=C/Nc2ccc(S(=O)(=O)NC(=N)N)cc2)cc1', 84.1),
  ('O=C(O)CNC(=O)/C(=C\c1ccc(F)cc1)NC(=O)c1ccco1', 96.4);

###

- assay.notes: in vitro
- experimental.conditions: human, hela cells, % viability
Listed molecules paired with reported viability at 28.5 h, 10 µM
result.type: viability at 28.5 h, 10 µM (%)

INSERT INTO assay_data (molecule, unit_of_measurement, measured) VALUES
  ('CC(C)c1ccc(S(=O)(=O)NCc2csc3ccccc23)cc1', '%', 96.6),
  ('CN1CCC(C(=O)Nc2cnc(-c3cccc(OC(F)(F)F)c3)c(-c3cccnc3)n2)CC1', '%', 108),
  ('Cc1nn(Cc2ccc(Cl)cc2)c(C)c1NC(=O)CCC(=O)O', '%', 88.5),
  ('Nc1nc2c([C@@H]3O[C@H](CO)[C@H](O)C3O)c[nH]c2c(=O)[nH]1 (stereo partly drawn)', '%', 94.5),
  ('CC(Oc1ccc2c(c1)OCO2)C(=O)NNC(=O)Nc1cccc(Cl)c1Cl (stereo not drawn)', '%', 86.5),
  ('O=C(c1ccncc1)N(c1ccc2oc3c(c2c1)CCCC3)S(=O)(=O)c1cccc([N+](=O)[O-])c1', '%', 106),
  ('CN(C(=O)c1cccnc1)C(CC1CCCCC1)C1CCCCC1 (stereo not drawn)', '%', 99.1),
  ('COc1ccc(NC(=S)NC(=O)CN2C(=O)c3ccccc3C2=O)c([N+](=O)[O-])c1', '%', 114),
  ('O=C1C2CCCN2S(=O)(=O)c2ccccc2N1Cc1ccccc1 (stereo not drawn)', '%', 88.6);

###

- assay.notes: in vitro
- experimental.conditions: human, hela cells, % viability
result.type: viability at 28.5 h, 10 µM (%)

INSERT INTO measurements (sample_smiles, result_type, unit_of_measurement, measured) VALUES
  ('COc1cc(NC(=O)N[C@@H]2CN(C)C[C@H]2c2ccc(OC)c(OC)c2)cc(OC)c1', 'viability at 28.5 h, 10 µM', '%', 93),
  ('Cc1cc2c(cc3c(=O)n(CC(=O)N4CCCC4)nc(C)n32)o1', 'viability at 28.5 h, 10 µM', '%', 93.1),
  ('CCOC(=O)c1ccc(C2=NCCC2)[nH]1', 'viability at 28.5 h, 10 µM', '%', 95.1),
  ('O=P(O)(CCc1ccccn1)CN1CCCCC1', 'viability at 28.5 h, 10 µM', '%', 97.2),
  ('O=C(CSc1nc2ccccc2c(=O)[nH]1)NCCO', 'viability at 28.5 h, 10 µM', '%', 96.2);
